Below, each of the compounds is paired with its reported XC50 value.
test system: Plasmodium falciparum; experiment: GSK_TCMDC: Inhibition of Plasmodium falciparum 3D7 in whole erythrocytes, using parasite LDH activity as an index of growth.; format: functional, organism-based; details: Plasmodium falciparum, 3D7
Use nM as the unit, but write only the number.

Solved cases (3 shown):
{"columns": ["structure_string", "subject_of_test", "XC50, nM"],
 "data": [
  ["CCCOc1cc(OCCC)cc(-c2ccc(C(=O)Nc3ccc4ccc(C)nc4c3)c(=O)[nH]2)c1", "Plasmodium falciparum", 750],
  ["C[C@H](NC(=O)c1c(CN2CCC(NC(=O)CC(C)(C)C)CC2)c(-c2cccs2)nc2ccccc12)C1CCCCC1", "Plasmodium falciparum", 947],
  ["CC(C)C1=C[C@H]2C[C@]3(C4OCCO4)[C@@H]4CC[C@@H](C)[C@H]4C[C@@]2(COCc2cccc(C#N)c2)[C@]13C(=O)OC(c1ccccc1)c1ccccc1", "Plasmodium falciparum", 1790]
]}

Q. Give a short answer stating reported XC50 for O=S(=O)(Nc1ccc2nccc(N3CCNCC3)c2c1)c1ccc2c(Cl)cccc2c1 .
A. 573

###

test system: Plasmodium falciparum; assay: GSK_TCMDC: Inhibition of Plasmodium falciparum 3D7 in whole erythrocytes, using parasite LDH activity as an index of growth.; assay type: functional, organism-based; settings: Plasmodium falciparum, 3D7
Catalogue of XC50 values
Supply the numeric figure in nM, leaving out any unit text.

Completed entries (count: 5):
{"columns": ["compound", "XC50, nM"],
 "data": [
  ["CN1CCN(c2nc(NCCc3ccc(O)cc3)nc(NCc3ccccc3-c3ccc(C(F)(F)F)cc3)n2)CC1", 971],
  ["Cc1cc(N[C@@H](CC(C)C)C(=O)NCc2cccc(F)c2)nc(Nc2ccccc2)n1", 1090],
  ["O=C(NCCN1CCCCC1)c1cc2cc(-c3ccccc3)ccc2n1S(=O)(=O)c1ccccc1", 1120],
  ["CCCCCCCN1CC[C@@H](CCCc2ccnc3ccc(OCCCCNC(N)=O)cc23)[C@@H](CC)C1", 835],
  ["CC1=C(C(=O)Nc2ccccc2)C(c2ccc([N+](=O)[O-])cc2)n2ncc(C(=O)Nc3ccccc3)c2N1 (centres undefined)", 1240]
]}

Q. Write down XC50 measured for item CN(CC(=O)Nc1ccc(F)cc1)C(=O)c1ccc(-c2ccc(F)cc2)o1
A. 934

Q. Provide one value: measured XC50 of Cc1n[nH]c2ccc(-c3ccc4nccc(N5CCC(N)CC5)c4c3)cc12
A. 591

Q. Using known records, supply XC50 for NC1=NC(c2ccccc2)(c2ccccc2)C(=O)N1CCCCc1ccccc1
A. 760

Q. Please indicate XC50 recorded for O=C(C=CC(=O)N1CCCCC1)NCc1ccccc1
A. 732

###

test system: Plasmodium falciparum; test: GSK_TCMDC: Inhibition of Plasmodium falciparum 3D7 in whole erythrocytes, using parasite LDH activity as an index of growth.; assay type: functional, organism-based; details: Plasmodium falciparum, 3D7
Hi all, reminder that labels come from XC50, split as bucket A = under 600 nM, bucket B = from 600 nM up to 800 nM, bucket C = 800 nM and over

Example cases with answers are listed next.
{"columns": ["compound", "class_label"],
 "data": [
  ["COc1ccc(CNCc2ccccc2)cc1-c1ccc(S(=O)(=O)NCCN2CCCC2)s1", "bucket B"],
  ["COc1nc2c(CCN3CCC(NCc4ccc5c(n4)NC(=O)CO5)CC3)c(Cl)cnc2cc1F", "bucket A"],
  ["Nn1c(=O)oc2ccc(Cl)cc2c1=O", "bucket A"],
  ["CN1CCCC1CCNc1ncc2c(-c3ccc(NC(=O)Nc4cc(C(F)(F)F)ccc4F)c(F)c3)nn(C)c2n1 (stereo not given)", "bucket A"],
  ["NC(=O)c1ccsc1NC(=O)CNC(c1ccc(F)cc1)c1cccs1 (stereo not given)", "bucket C"],
  ["Cc1ccc(S(=O)(=O)N(C)c2ccccc2C(=O)Nc2ccccc2Oc2ccccc2)cc1", "bucket C"],
  ["O=c1cnc2ccc(F)cc2n1CCN1CCC(NCc2cc(-c3ccccc3)cs2)CC1", "bucket C"],
  ["COCCN(C)CCCOc1cc2c(cc1OC)ncn2-c1cc(OCc2ccccc2C(F)(F)F)c(C(N)=O)s1", "bucket B"],
  ["CC(C)N1CCC(NC(=O)N2CCCN(c3ncnc4cc(-c5ccccc5)sc34)CC2)CC1", "bucket C"],
  ["O=C(/C=C/c1ccc(C(F)(F)F)cc1)NCCCCCN1CCCN(C(=O)Nc2ccc(Cl)c(Cl)c2)CC1", "bucket A"]
]}

Q. Dear colleague, I would appreciate it if you could identify the bin for CNCCNCc1ccc(-c2ccc(-c3nc4cc(F)ccc4[nH]3)cc2)cc1 and reply at your convenience.
A. bucket A

Q. // bin(item) where item = N=C(N)Nc1nccc(NCc2ccccc2)n1
A. bucket C

Q. Class (by measured XC50) for COc1cccc(-c2cc3nc4c(c(NCCCn5ccnc5)n3n2)CCCC4)c1
A. bucket B

Q. Which bin should I file CN1CCN(CCCN(Cc2cccc(-c3ccc(CNC4CCCC4)cc3)c2)C(=O)CCC2CCCC2)CC1 under?
A. bucket B

Q. Band for CCOc1ccc(Br)cc1/C=C/C(=O)Nc1ccc2c(c1)CCCN(C)C2 ?
A. bucket C

Q. Class for O=C(c1cc(-c2ccco2)n[nH]1)N1CCN(S(=O)(=O)c2ccc(Cl)cc2)CC1 ?
A. bucket A
